- EXPERIMENTAL_PARAMETERS: human gut metagenome, 24 h, 2 µM; note: call rule not given here
EXPERIMENTAL_READOUT: Bacterial Biotransformation

Look over these answered cases.
>>> result_value("OC(c1cc(C(F)(F)F)nc2c(C(F)(F)F)cccc12)C1CCCCN1 (stereo not given)")
"Compound NOT metabolized"
>>> result_value("Cc1cc(C)cc(OCC2CNC(=O)O2)c1 (stereo not given)")
"Compound metabolized"
>>> result_value("COc1ccnc(C[S+]([O-])c2nc3ccc(OC(F)F)cc3[nH]2)c1OC (stereo not given)")
"Compound metabolized"
>>> result_value("COc1ccc(Cc2nccc3cc(OC)c(OC)cc23)cc1OC")
"Compound metabolized"

Field: next molecule
What value of Bacterial Biotransformation has been reported for the following molecule? CCN(CC)CCNC(=O)c1ccc(NC(C)=O)cc1 [ACECAINIDE]
Compound NOT metabolized
